Ref: ChEMBL document CHEMBL4308856

- measured_target: Neuronal acetylcholine receptor subunit alpha-7 (Homo sapiens, UniProt P36544)
- Sequence (P36544 whole entry): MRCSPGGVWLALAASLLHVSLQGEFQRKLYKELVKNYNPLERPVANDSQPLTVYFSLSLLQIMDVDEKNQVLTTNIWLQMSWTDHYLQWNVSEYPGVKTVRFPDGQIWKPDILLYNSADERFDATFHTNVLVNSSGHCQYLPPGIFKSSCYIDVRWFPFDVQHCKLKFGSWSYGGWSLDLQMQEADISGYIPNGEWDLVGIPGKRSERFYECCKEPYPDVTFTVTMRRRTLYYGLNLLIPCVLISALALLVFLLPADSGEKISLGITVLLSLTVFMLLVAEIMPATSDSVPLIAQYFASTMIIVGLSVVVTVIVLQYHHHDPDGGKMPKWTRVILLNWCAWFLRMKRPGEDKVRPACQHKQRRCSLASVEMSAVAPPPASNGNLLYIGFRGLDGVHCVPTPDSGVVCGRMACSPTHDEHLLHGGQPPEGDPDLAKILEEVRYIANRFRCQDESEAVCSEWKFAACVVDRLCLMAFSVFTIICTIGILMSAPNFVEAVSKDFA
- assay_remarks: Partial agonist activity at human alpha7 nAChR expressed in Xenopus laevis oocytes assessed as increase in net charge at 30 uM at -60 mV holding potential treated for 12 secs followed by compound washout for 181 secs by whole cell two electrode voltage-clamp assay relative to ACh
- Format: cell-based
Just so you know, the groups by fold change (FC) go like this: bucket 1 = under 0.07, bucket 2 = from 0.07 up to 0.3, bucket 3 = 0.3 and over

Here are 2 compounds together with their reported answers.
[
  {
    "compound": "COc1ccc(-c2noc(CC3CN4CCC3CC4)n2)cc1 (centres undefined)",
    "category_label": "bucket 3"
  },
  {
    "compound": "c1coc(-c2noc(CC3CN4CCC3CC4)n2)c1 (centres undefined)",
    "category_label": "bucket 3"
  }
]

For this compound, which bin applies? Brc1cccc(-c2noc(CC3CN4CCC3CC4)n2)c1 (centres undefined)
bucket 2

For this compound, which bin applies? C[N+]12CCC(CC1)C(Cc1nc(-c3cccnc3)no1)C2 (centres undefined)
bucket 1

For this compound, which bin applies? COc1cccc(-c2noc(CC3C[N+]4(C)CCC3CC4)n2)c1 (centres undefined)
bucket 2

For this compound, which bin applies? COc1ccc(-c2noc(CC3C[N+]4(C)CCC3CC4)n2)cc1 (centres undefined)
bucket 2

For this compound, which bin applies? C[N+]12CCC(CC1)C(Cc1nc(-c3cccc(I)c3)no1)C2 (centres undefined)
bucket 2

For this compound, which bin applies? FC(F)(F)c1cccc(-c2noc(CC3CN4CCC3CC4)n2)c1 (centres undefined)
bucket 1

For this compound, which bin applies? C[N+]12CCC(CC1)C(Cc1nc(-c3cccc(Cl)c3)no1)C2 (centres undefined)
bucket 2

For this compound, which bin applies? Cc1cccc(-c2noc(CC3C[N+]4(C)CCC3CC4)n2)c1 (centres undefined)
bucket 2
